Target: mushroom tyrosinase (Agaricus bisporus, UniProt C7FF04)
Sequence (C7FF04 1-392): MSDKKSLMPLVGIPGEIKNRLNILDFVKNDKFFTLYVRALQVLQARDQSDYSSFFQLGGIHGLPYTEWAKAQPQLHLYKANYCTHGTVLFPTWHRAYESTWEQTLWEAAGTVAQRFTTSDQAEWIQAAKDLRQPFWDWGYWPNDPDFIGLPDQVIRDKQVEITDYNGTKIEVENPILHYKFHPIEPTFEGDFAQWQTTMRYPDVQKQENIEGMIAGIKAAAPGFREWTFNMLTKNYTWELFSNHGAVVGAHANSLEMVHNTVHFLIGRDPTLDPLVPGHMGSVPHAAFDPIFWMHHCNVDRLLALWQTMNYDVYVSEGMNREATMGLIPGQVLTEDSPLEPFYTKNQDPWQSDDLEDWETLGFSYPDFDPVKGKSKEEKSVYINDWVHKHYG
Experiment: Mushroom tyrosinase inhibitory assay with L-dopa as substrate;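 note: enzyme activity followed as absorbance change at 475 nm in phosphate buffer pH 6.8, monitored continuously, IC50 derived from percent inhibition dose–response curves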
Assay type: biochemical
Conditions: L-dopa substrate; ± SD; read-out: IC50 ± SD
IC50 values by entry

>  <MOLECULE>
O=C(OCCN1CCN(c2ccc([N+](=O)[O-])cc2)CC1)c1ccc([N+](=O)[O-])cc1Cl [Compound 4f]

>  <IC50>
> 200 µM

$$$$
>  <MOLECULE>
O=C(OCCN1CCN(c2ccc([N+](=O)[O-])cc2)CC1)c1cccc([N+](=O)[O-])c1 [Compound 4e]

>  <IC50>
> 200 µM

$$$$
>  <MOLECULE>
O=C(OCCN1CCN(c2ccc([N+](=O)[O-])cc2)CC1)c1ccc([N+](=O)[O-])o1 [Compound 4m]

>  <IC50>
175 µM

$$$$

Need IC50, item O=C(OCCN1CCN(c2ccc([N+](=O)[O-])cc2)CC1)c1ccc([N+](=O)[O-])cc1 [Compound 4d]
203 µM

The reported numbers originate from paper PMC10998383.
